assayed.system: OsWRKY34 (Oryza sativa, UniProt Q0JBA9 1-250)
Sequence (Q0JBA9 entry or part of it): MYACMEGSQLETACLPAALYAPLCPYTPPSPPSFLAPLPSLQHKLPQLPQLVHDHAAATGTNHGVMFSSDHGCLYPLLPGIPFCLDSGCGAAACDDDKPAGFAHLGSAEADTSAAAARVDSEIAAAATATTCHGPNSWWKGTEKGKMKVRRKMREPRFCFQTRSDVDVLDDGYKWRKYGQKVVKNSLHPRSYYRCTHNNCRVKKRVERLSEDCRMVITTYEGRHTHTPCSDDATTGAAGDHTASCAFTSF
test.details: protein-binding microarray (RPBM); PBS, 2% BSA, 51.3 ng/ul salmon testes DNA, 50 uM zinc acetate, 200 nM TF, 25 C, 1 h; high values mean tight binding
test.settings: protein: recombinant; tags: N-terminal polyhistidine and DsRed monomer fusion (pET32a); label: CyDye5-dUTP incorporated in the synthesized complementary strand; 3' TTTTT single-stranded linker to array surface; dsDNA, one strand shown
The full ranking holds about 68,000 sequences; the median of “fluorescence intensity (a.u.)” is about 9,100, and the highest 2% start at about 16,000. For the sample, the highest values were picked, then their nearest neighbours and some sequences at random.
measure.name: binding signal

The measured binding signal associated with GCTCTCATGGCCTCACACACCGCGCCATTGCCATCGTTTCCGGAGTCACCTAGTGCAG reads 17000 fluorescence intensity (a.u.)

The measured binding signal associated with GTCCTGCTGCTTCCGCCGCCGCCACCGTCCTGCTGCTTCCCGGAGTCACCTAGTGCAG reads 9500 fluorescence intensity (a.u.)

The measured binding signal associated with GTTTGACACCGTTGACTTTTTTAAATATGTTTGACCGTTTCGGAGTCACCTAGTGCAG reads 25000 fluorescence intensity (a.u.)

The measured binding signal associated with AGCGTTGACCATACTTAAATCACAGTTTTCTTTTCTTTTTCGGAGTCACCTAGTGCAG reads 21800 fluorescence intensity (a.u.)

The measured binding signal associated with CTTTTCTTTTCAATTTTTTGAGCGTTGACCATACTTAAATCGGAGTCACCTAGTGCAG reads 14800 fluorescence intensity (a.u.)

The measured binding signal associated with GTCTCCGCGCGCGCTCTCTCTTTCGTTCACTCTCGCTTTCCGGAGTCACCTAGTGCAG reads 14500 fluorescence intensity (a.u.)

The measured binding signal associated with CCGCCGCTTCCTCGCCACCGCCGCTGCCGCCGCCACTTCCCGGAGTCACCTAGTGCAG reads 19400 fluorescence intensity (a.u.)

The measured binding signal associated with TATGTTCATTTCCTTATTTGCCTCTCGTCATGTCTCTTGACGGAGTCACCTAGTGCAG reads 10200 fluorescence intensity (a.u.)

The measured binding signal associated with TTGTTTCTGTTCATTTTTCTCTATAGTACTTGCTAGGTGACGGAGTCACCTAGTGCAG reads 11500 fluorescence intensity (a.u.)

The measured binding signal associated with CCTTTCGTTTTATATTATAATTCGTTTTGACTTTTTTCTTCGGAGTCACCTAGTGCAG reads 10500 fluorescence intensity (a.u.)

The measured binding signal associated with TTACATTTTAGGACATATATTTGGGGAGCTTCTTGGCTGTCGGAGTCACCTAGTGCAG reads 10800 fluorescence intensity (a.u.)

The measured binding signal associated with CTCCTCTCGCCGCCGCCGCCACCGCCACCGCCGCCGCTCCCGGAGTCACCTAGTGCAG reads 10100 fluorescence intensity (a.u.)

The measured binding signal associated with AACGCTATTTATTTTTTAAACATGTTTGATCGTTCGTCTTCGGAGTCACCTAGTGCAG reads 10200 fluorescence intensity (a.u.)

The measured binding signal associated with CTCGCCGCCGGCCTCCTCCACCACCACCGACGACTCCGACCGGAGTCACCTAGTGCAG reads 8430 fluorescence intensity (a.u.)

The measured binding signal associated with CGCGCCCTCCTCCGCCGCCGCTCGCCGCCGTTCGTCTCCGCGGAGTCACCTAGTGCAG reads 9840 fluorescence intensity (a.u.)

The measured binding signal associated with TTCTAAATAATATTTGACGCCGTTGACTTTTTTAAATATACGGAGTCACCTAGTGCAG reads 14600 fluorescence intensity (a.u.)

The measured binding signal associated with TTTCAGGTTTTGCATTTCACACCTCTGTCGTCATACTTGACGGAGTCACCTAGTGCAG reads 17800 fluorescence intensity (a.u.)

The measured binding signal associated with TCAGTGGACTCGGTTCTGTTTTTTTGTCACTCCACTGGCACGGAGTCACCTAGTGCAG reads 9610 fluorescence intensity (a.u.)

The measured binding signal associated with ACCATCTTATTTAACGTAAAATATTTAATTTTCATTTTTACGGAGTCACCTAGTGCAG reads 8480 fluorescence intensity (a.u.)
